Tested on: P. aeruginosa ATCC 27853
Assay: Neutropenic mouse bloodstream infection model
Type: in vivo
Conditions: single IV dose 4 mg/kg, 4 h
Residues, ends and D or L forms follow the SMILES beside them.
Quick reference: Log10 CFU/mL blood at 4 h, Mean of the listed items.
Record the result as a number with its unit.

CCCCCCCCC(=O)N[C@@H](CCN)C(=O)N[C@H](C(=O)N[C@@H](CN)C(=O)N[C@H]1CCNC(=O)[C@H]([C@@H](C)O)NC(=O)[C@H](CCN)NC(=O)[C@H](CCN)NC(=O)[C@H](CC)NC(=O)[C@@H](CC(C)C)NC(=O)[C@H](CCN)NC1=O)[C@@H](C)O [Lipopeptide F314] (HELM PEPTIDE1{[CCCCCCCCC(=O)[*:2]].[Dab].T.[NC[C@H](N[*:1])C(=O)[*:2]].[Dab].[Dab].[dL].[Abu].[Dab].[Dab].T}$PEPTIDE1,PEPTIDE1,5:R3-11:R2$$$V2.0) ... 4.33 Log10 CFU/mL blood

Specify reported Log10 CFU/mL blood at 4 h, Mean for the compound shown: CCCCCCCC(=O)N[C@@H](CCN)C(=O)N[C@H](C(=O)N[C@@H](CN)C(=O)N[C@H]1CCNC(=O)[C@H]([C@@H](C)O)NC(=O)[C@H](CCN)NC(=O)[C@H](CCN)NC(=O)[C@H](CC)NC(=O)[C@@H](CC(C)C)NC(=O)[C@H](CCN)NC1=O)[C@@H](C)O [Lipopeptide F287] (HELM PEPTIDE1{[CCCCCCCC(=O)[*:2]].[Dab].T.[NC[C@H](N[*:1])C(=O)[*:2]].[Dab].[Dab].[dL].[Abu].[Dab].[Dab].T}$PEPTIDE1,PEPTIDE1,5:R3-11:R2$$$V2.0)
5.02 Log10 CFU/mL blood

* * *

Tested on: P. aeruginosa ATCC 27853
Assay type: cell-based, Pseudomonas aeruginosa
Details: ATCC 27853
Residues, ends and D or L forms follow the SMILES beside them.
ASSAY_READOUT: MIC P. aeruginosa ATCC 27853 (µg/mL)
Kindly answer with a numeric value in µg/mL, unit omitted.

CCCCCCCC(=O)N[C@@H](CCN)C(=O)N[C@H](C(=O)N[C@@H](CCN)C(=O)N[C@H]1CCNC(=O)[C@H]([C@@H](C)O)NC(=O)[C@H](CCN)NC(=O)[C@H](CCN)NC(=O)[C@H]([C@@H](C)O)NC(=O)[C@@H](Cc2ccccc2)NC(=O)[C@H](CCN)NC1=O)[C@@H](C)O [Lipopeptide F224] (HELM PEPTIDE1{[CCCCCCCC(=O)[*:2]].[Dab].T.[Dab].[Dab].[Dab].[dF].T.[Dab].[Dab].T}$PEPTIDE1,PEPTIDE1,5:R3-11:R2$$$V2.0) ... 1

Indicate its recorded MIC P. aeruginosa ATCC 27853; the molecule in question is CCCCCCCC(=O)N[C@@H](CCN)C(=O)N[C@H](C(=O)N[C@@H](CN)C(=O)N[C@H]1CCNC(=O)[C@H]([C@@H](C)O)NC(=O)[C@H](CCN)NC(=O)[C@H](CCN)NC(=O)[C@H](C)NC(=O)[C@@H](CC(C)C)NC(=O)[C@H](CCN)NC1=O)[C@@H](C)O [Lipopeptide F271] (HELM PEPTIDE1{[CCCCCCCC(=O)[*:2]].[Dab].T.[NC[C@H](N[*:1])C(=O)[*:2]].[Dab].[Dab].[dL].A.[Dab].[Dab].T}$PEPTIDE1,PEPTIDE1,5:R3-11:R2$$$V2.0)
0.5
